Hi there, I'd appreciate the recorded IC50 for every entry that follows.
- TESTED_ON: recombinant human CHIT1 (Homo sapiens (Human), UniProt Q13231)
- Sequence (Q13231 22-466): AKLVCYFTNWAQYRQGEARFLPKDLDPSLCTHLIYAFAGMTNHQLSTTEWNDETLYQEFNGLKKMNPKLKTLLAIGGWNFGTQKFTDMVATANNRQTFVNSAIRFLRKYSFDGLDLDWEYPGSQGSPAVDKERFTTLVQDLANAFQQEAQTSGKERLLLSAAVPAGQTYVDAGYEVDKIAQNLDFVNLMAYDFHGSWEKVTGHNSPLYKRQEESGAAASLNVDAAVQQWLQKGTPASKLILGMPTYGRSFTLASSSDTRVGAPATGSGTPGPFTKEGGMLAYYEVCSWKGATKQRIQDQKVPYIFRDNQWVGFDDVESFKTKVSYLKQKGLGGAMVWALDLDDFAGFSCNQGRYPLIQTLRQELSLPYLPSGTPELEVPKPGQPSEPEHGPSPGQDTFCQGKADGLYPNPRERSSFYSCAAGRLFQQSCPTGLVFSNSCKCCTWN
- ASSAY_EXPLANATION: Human CHIT1 activity assay (fluorescent 4MU substrate)
- MEASUREMENT_CONDITIONS: citrate buffer pH 5.2, 37° C., 60 minutes; substrate 4-methylumbelliferyl β-D-N,N′,N″-triacetylchitotriose; read-out: Activity on hCHIT1, IC50

Tell me IC50 reported for Nc1nnc(N2CCC(N3Cc4cc(Cl)ccc4OC[C@@H]3Cc3ccc(Cl)cc3)CC2)[nH]1 [Example 61]
1 to 10 µM

Tell me IC50 reported for CO[C@H]1C[C@H](Cc2ccc(Cl)cc2)N(C2CCN(c3nnc(N)[nH]3)CC2)C1 [Example 46]
< 0.1 µM

Tell me IC50 reported for CO[C@@H]1C[C@H](Cc2ccc(Cl)cc2)N(C2CCN(c3n[nH]c(N)n3)CC2)C1 [Example 51]
< 0.1 µM

Tell me IC50 reported for CO[C@H]1CN(C2CCN(c3nnc(N)[nH]3)CC2)[C@H]1Cc1ccc(Cl)cc1 [Example 22]
0.1 to 1 µM

Tell me IC50 reported for CN1C[C@H](Cc2ccc(Cl)cc2)N(C2CCN(c3nnc(N)[nH]3)CC2)Cc2cc(Cl)ccc21 [Example 58]
0.1 to 1 µM

Tell me IC50 reported for CN1C[C@H](Cc2ccc(Cl)cc2)N(C2CCN(c3nnc(N)[nH]3)CC2)C[C@@H]1CC1CCCCC1 [Example 32]
1 to 10 µM

Tell me IC50 reported for Nc1nnc(N2CCC(N3CCNC[C@@H]3Cc3ccc(Cl)cc3)CC2)[nH]1 [Example 26]
1 to 10 µM

Tell me IC50 reported for CN1C[C@H](Cc2ccc(Cl)cc2)N(C2CCN(c3nnc(N)[nH]3)CC2)Cc2ccccc21 [Example 57]
0.1 to 1 µM

Tell me IC50 reported for C=C1COC[C@H](Cc2ccc(Cl)cc2)N(C2CCN(c3nnc(N)[nH]3)CC2)C1 [Example 55]
0.1 to 1 µM

Tell me IC50 reported for Nc1nnc(N2CCC(N3CCCCC3C(O)c3ccc(Cl)cc3)CC2)[nH]1 (stereo not drawn) [Example 21]
10 to 100 µM

Tell me IC50 reported for Nc1nnc(N2CCC(N3Cc4cc(F)ccc4OC[C@@H]3Cc3ccc(Cl)cc3)CC2)[nH]1 [Example 60]
0.1 to 1 µM

Tell me IC50 reported for CC1(O)C[C@H](Cc2ccc(Cl)cc2)N(C2CCN(c3nnc(N)[nH]3)CC2)C1 (stereo partly drawn) [Example 48]
0.1 to 1 µM

Tell me IC50 reported for Nc1nnc(N2CCC(N3Cc4ccncc4OC[C@@H]3Cc3ccc(Cl)cc3)CC2)[nH]1 [Example 63]
1 to 10 µM

Tell me IC50 reported for C[C@H]1CN(C2CCN(c3nnc(N)[nH]3)CC2)[C@@H](Cc2ccc(Cl)cc2)CN1C [Example 27]
1 to 10 µM

Tell me IC50 reported for CN1C[C@H](Cc2ccc(Cl)cc2)N(C2CCN(c3nnc(N)[nH]3)CC2)C[C@@H]1Cc1ccc(Cl)cc1 [Example 31]
1 to 10 µM

Tell me IC50 reported for Nc1nnc(N2CCC(N3C[C@@H](F)[C@@H]3Cc3ccc(Cl)cc3)CC2)[nH]1 [Example 23]
10 to 100 µM

Tell me IC50 reported for CC(C)C[C@H]1CN(C2CCN(c3nnc(N)[nH]3)CC2)[C@@H](Cc2ccc(Cl)cc2)CN1C [Example 33]
1 to 10 µM

Tell me IC50 reported for Nc1nnc(N2CCC(N3Cc4ccccc4OC[C@@H]3Cc3ccc(Cl)cc3)CC2)[nH]1 [Example 59]
0.1 to 1 µM

Tell me IC50 reported for Nc1nnc(N2CCC(N3Cc4cc(Cl)cc(Cl)c4OC[C@@H]3Cc3ccc(Cl)cc3)CC2)[nH]1 [Example 62]
10 to 100 µM

Tell me IC50 reported for CC(C)CN1CCN(C2CCN(c3nnc(N)[nH]3)CC2)[C@@H](Cc2ccc(Cl)cc2)C1 [Example 29]
10 to 100 µM

Tell me IC50 reported for Nc1nnc(N2CCC(N3CCOCC3Cc3ccc(Cl)cc3)CC2)[nH]1 (stereo not drawn) [Example 2]
0.1 to 1 µM

###

- TESTED_ON: recombinant human AMCase (Homo sapiens (Human))
- Sequence (Q9BZP6 22-476): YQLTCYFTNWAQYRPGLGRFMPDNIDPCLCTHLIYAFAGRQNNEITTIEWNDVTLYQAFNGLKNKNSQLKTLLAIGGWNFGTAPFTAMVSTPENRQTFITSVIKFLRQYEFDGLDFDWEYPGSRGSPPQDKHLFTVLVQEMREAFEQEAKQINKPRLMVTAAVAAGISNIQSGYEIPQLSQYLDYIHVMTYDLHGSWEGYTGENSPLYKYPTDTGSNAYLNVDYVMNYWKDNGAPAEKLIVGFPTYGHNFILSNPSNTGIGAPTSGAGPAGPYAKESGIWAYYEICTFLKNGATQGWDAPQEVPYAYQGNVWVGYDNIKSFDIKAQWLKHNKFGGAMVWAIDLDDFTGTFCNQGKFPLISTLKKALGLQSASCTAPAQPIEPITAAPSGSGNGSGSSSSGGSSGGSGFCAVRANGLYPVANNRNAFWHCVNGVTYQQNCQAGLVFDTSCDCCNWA
- ASSAY_EXPLANATION: Human AMCase activity assay (fluorescent 4MU substrate)
- MEASUREMENT_CONDITIONS: citrate buffer pH 5.2, 37° C., 60 minutes; substrate 4-methylumbelliferyl B-D-N,N′-diacetylchitobioside hydrate; read-out: Activity on hAMCase, IC50
pIC50: −log10 of the molar value.
OBSERVATION_TYPE: pIC50

Tell me pIC50 reported for `Nc1nnc(N2CCC(N3Cc4cc(Cl)cc(Cl)c4OC[C@@H]3Cc3ccc(Cl)cc3)CC2)[nH]1`
> 7.00

Tell me pIC50 reported for `Nc1nnc(N2CCC(N3Cc4ccncc4OC[C@@H]3Cc3ccc(Cl)cc3)CC2)[nH]1`
> 7.00

Tell me pIC50 reported for `COC(=O)CN1C[C@H](Cc2ccc(Cl)cc2)N(C2CCN(c3nnc(N)[nH]3)CC2)C[C@@H]1C`
> 7.00
